experimentalSystem: human CB2 receptor (Homo sapiens, UniProt P34972)
Sequence (P34972 whole entry): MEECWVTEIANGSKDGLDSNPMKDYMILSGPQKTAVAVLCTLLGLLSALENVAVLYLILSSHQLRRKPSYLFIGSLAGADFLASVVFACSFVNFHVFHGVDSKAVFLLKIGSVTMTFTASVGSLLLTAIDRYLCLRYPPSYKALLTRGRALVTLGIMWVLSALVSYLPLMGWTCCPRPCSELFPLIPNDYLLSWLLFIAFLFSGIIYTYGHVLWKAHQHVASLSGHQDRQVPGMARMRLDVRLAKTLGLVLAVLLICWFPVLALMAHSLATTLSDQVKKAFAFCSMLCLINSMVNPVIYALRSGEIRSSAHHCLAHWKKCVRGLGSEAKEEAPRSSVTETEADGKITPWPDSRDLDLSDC
protocolSummary: Radioligand binding assays at human CB2 receptor ([3H]-CP55940)
conditionNotes: [3H]-CP55940 0.8 nM, 90 min, 30 °C, read-out: Binding Affinities pKi (converted)
measuredMetric: Ki (µM)
Field: numeric (µM). Do not append units.

Recorded results for 2 molecules are shown here.
CN(C(=O)c1nn(C)c2c1COc1ccccc1-2)c1cccc(C(F)(F)F)c1 = 13.8
NC(=O)c1nc(Nc2ccccc2)sc1NC(=O)C12CC3CC(CC(C3)C1)C2 = 1.58

We now examine a further molecule.
stdin: What measured Ki goes with O=c1c2nccnc2nc(SCc2cccc(F)c2)n1Cc1cccs1 ?
stdout: 3.55

Source of measurements: paper PMC8587544
